- assay_target: 14-3-3ζ full length His-tag (Homo sapiens, UniProt P63104)
- method: biochemical
- Format: binding

{"compound": "CC(C)C[C@H](NC(=O)[C@H](CC(=O)O)NC(=O)[C@H](CC(C)C)NC(=O)[C@]1(C)CCCCCCCC[C@@](C)(NC(=O)CNC(=O)[C@H](CCC(N)=O)NC(=O)COCCOCCNC(=S)Nc2ccc3c(c2)C(=O)OC32c3ccc(O)cc3Oc3cc(O)ccc32)C(=O)N[C@@H](CC(C)C)C(=O)N[C@@H](CC(=O)O)C(=O)N1)C(N)=O [compound 3]", "units_text": "µM", "sign_qualifier": "=", "Kd": 2.88}
{"compound": "CC(C)C[C@@H]1NC(=O)[C@](C)(NC(=O)CNC(=O)[C@H](CCC(N)=O)NC(=O)COCCOCCNC(=S)Nc2ccc3c(c2)C(=O)OC32c3ccc(O)cc3Oc3cc(O)ccc32)CCCCCCCC[C@@](C)(C(=O)N[C@@H](CC(C)C)C(=O)N[C@@H](CC(=O)O)C(N)=O)NC(=O)[C@H](CC(=O)O)NC1=O [compound 4]", "units_text": "µM", "sign_qualifier": ">", "Kd": 100}
{"compound": "CC(C)C[C@H](NC(=O)[C@H](CC(=O)O)NC(=O)[C@H](CC(C)C)NC(=O)[C@]1(C)CCCCCCCC[C@@](C)(NC(=O)COCCOCCNC(=S)Nc2ccc3c(c2)C(=O)OC32c3ccc(O)cc3Oc3cc(O)ccc32)C(=O)N[C@@H](CC(C)C)C(=O)N[C@@H](CC(=O)O)C(=O)N1)C(N)=O [compound 6]", "units_text": "µM", "sign_qualifier": "=", "Kd": 12.3}

---

- method: physchem
- settings: pH 7.4
Readings of chromatographic logD for the listed compounds
measured_metric: chromatographic logD

{"structure_string": "CC[C@@]1(C(=O)N[C@@H](CC(C)C)C(=O)N[C@@H](CC(=O)O)C(=O)N[C@@H](CC(C)C)C(N)=O)CCCCCCCC[C@@](C)(NC(=O)CNC(C)=O)C(=O)N[C@@H](CC(C)C)C(=O)N[C@@H](CC(=O)O)C(=O)N1", "measured_number": 1.28}
{"structure_string": "CC[C@@]1(NC(=O)CNC(C)=O)CCCCCCCC[C@@](CC)(C(=O)N[C@@H](CC(C)C)C(=O)N[C@@H](CC(=O)O)C(=O)N[C@@H](CC(C)C)C(N)=O)NC(=O)[C@H](CC(=O)O)NC(=O)[C@H](CC(C)C)NC1=O", "measured_number": 1.35}
{"structure_string": "CC(=O)NCC(=O)N[C@]1(C)CCCCCCCC[C@@](C)(C(=O)N[C@@H](CC(C)C)C(=O)N[C@@H](CC(=O)O)C(=O)N[C@@H](CC(C)C)C(N)=O)NC(=O)[C@H](CC(=O)O)NC(=O)[C@H](CC(C)C)NC1=O", "measured_number": 1.26}

---

- method: HPLC-based LogD determination
- settings: HPLC-UV 254 nm, Nucleodur C18 Gravity, 50 mM ammonium acetate pH 7.4 (A) / acetonitrile (B), 0 min 0 % B to 20 min 95 % B, 1 mL/min; acetylated peptides; triplicates
measured_metric: tR (retention time used for LogD determination) (min)

{"molecule": "CC(=O)NCC(=O)N[C@]1(C)CCCCCCCC[C@@](C)(C(=O)N[C@@H](CC(C)C)C(=O)N[C@@H](CC(=O)O)C(=O)N[C@@H](CC(C)C)C(N)=O)NC(=O)[C@H](CC(=O)O)NC(=O)[C@H](CC(C)C)NC1=O [compound 5]", "measured_number": 12.75}
{"molecule": "CC(CCc1ccccc1)NCC(O)c1ccc(O)c(C(N)=O)c1 (centres unmarked) [Labetolol, reference compound]", "measured_number": 12.14}
{"molecule": "CC[C@@]1(NC(=O)CNC(C)=O)CCCCCCCC[C@@](CC)(C(=O)N[C@@H](CC(C)C)C(=O)N[C@@H](CC(=O)O)C(=O)N[C@@H](CC(C)C)C(N)=O)NC(=O)[C@H](CC(=O)O)NC(=O)[C@H](CC(C)C)NC1=O [compound 12]", "measured_number": 12.92}
{"molecule": "COc1ccc([C@@H]2Sc3ccccc3N(CCN(C)C)C(=O)[C@@H]2OC(C)=O)cc1 [Diltiazem, reference compound]", "measured_number": 15.31}
{"molecule": "CC(=O)NCC(=O)N[C@]1(C)CCCCCCCC[C@@H](C(=O)N[C@@H](CC(C)C)C(=O)N[C@@H](CC(=O)O)C(=O)N[C@@H](CC(C)C)C(N)=O)NC(=O)[C@H](CC(=O)O)NC(=O)[C@H](CC(C)C)NC1=O [compound 9]", "measured_number": 12.35}
{"molecule": "CC(=O)NCC(=O)N[C@@H]1CCCCCCCC[C@@H](C(=O)N[C@@H](CC(C)C)C(=O)N[C@@H](CC(=O)O)C(=O)N[C@@H](CC(C)C)C(N)=O)NC(=O)[C@H](CC(=O)O)NC(=O)[C@H](CC(C)C)NC1=O [compound 7]", "measured_number": 11.70}
{"molecule": "CC(=O)N[C@@H](CCC(N)=O)C(=O)NCC(=O)N[C@]1(C)CCCCCCCC[C@@](C)(C(=O)N[C@@H](CC(C)C)C(=O)N[C@@H](CC(=O)O)C(=O)N[C@@H](CC(C)C)C(=O)N[C@@H](C)C(=O)N[C@@H](CO)C(N)=O)NC(=O)[C@H](CC(=O)O)NC(=O)[C@H](CC(C)C)NC1=O [compound 1]", "measured_number": 12.58}
{"molecule": "COCCc1ccc(OCC(O)CNC(C)C)cc1 (centres unmarked) [Metoprolol, reference compound]", "measured_number": 10.21}
{"molecule": "CC[C@@]1(C(=O)N[C@@H](CC(C)C)C(=O)N[C@@H](CC(=O)O)C(=O)N[C@@H](CC(C)C)C(N)=O)CCCCCCCC[C@@](C)(NC(=O)CNC(C)=O)C(=O)N[C@@H](CC(C)C)C(=O)N[C@@H](CC(=O)O)C(=O)N1 [compound 10]", "measured_number": 12.78}
{"molecule": "CC(=O)NCC(=O)N[C@@H]1CCCCCCCC[C@@](C)(C(=O)N[C@@H](CC(C)C)C(=O)N[C@@H](CC(=O)O)C(=O)N[C@@H](CC(C)C)C(N)=O)NC(=O)[C@H](CC(=O)O)NC(=O)[C@H](CC(C)C)NC1=O [compound 8]", "measured_number": 12.37}
{"molecule": "CC[C@@]1(NC(=O)CNC(C)=O)CCCCCCCC[C@@](C)(C(=O)N[C@@H](CC(C)C)C(=O)N[C@@H](CC(=O)O)C(=O)N[C@@H](CC(C)C)C(N)=O)NC(=O)[C@H](CC(=O)O)NC(=O)[C@H](CC(C)C)NC1=O [compound 11]", "measured_number": 12.88}

---

Readings of pKd for the listed compounds
- assay_target: 14-3-3ζ full length His-tag (Homo sapiens, UniProt P63104)
- Sequence (P63104 1-245): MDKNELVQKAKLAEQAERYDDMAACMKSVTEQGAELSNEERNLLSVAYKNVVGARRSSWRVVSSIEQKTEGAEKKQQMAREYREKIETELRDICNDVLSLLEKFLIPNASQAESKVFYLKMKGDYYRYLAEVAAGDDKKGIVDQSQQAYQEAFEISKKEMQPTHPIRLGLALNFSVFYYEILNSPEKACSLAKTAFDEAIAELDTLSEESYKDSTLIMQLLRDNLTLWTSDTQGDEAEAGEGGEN
pKd: −log10 of the molar value.
measured_metric: pKd

{"compound": "CC(C)C[C@H](NC(=O)[C@H](CC(=O)O)NC(=O)[C@H](CC(C)C)NC(=O)[C@]1(C)CCCCCCCC[C@@](C)(NC(=O)CNC(=O)[C@H](CCC(N)=O)NC(=O)COCCOCCNC(=S)Nc2ccc3c(c2)C(=O)OC32c3ccc(O)cc3Oc3cc(O)ccc32)C(=O)N[C@@H](CC(C)C)C(=O)N[C@@H](CC(=O)O)C(=O)N1)C(=O)N[C@@H](C)C(=O)N[C@@H](C)C(N)=O [S430A]", "assay_target": "14-3-3ζ full length His-tag (Homo sapiens, UniProt P63104)", "measured_number": 7.14}
{"compound": "CC(C)C[C@H](NC(=O)[C@H](CC(=O)O)NC(=O)[C@H](CC(C)C)NC(=O)[C@]1(C)CCCCCCCC[C@@](C)(NC(=O)CNC(=O)[C@H](CCC(N)=O)NC(=O)COCCOCCNC(=S)Nc2ccc3c(c2)C(=O)OC32c3ccc(O)cc3Oc3cc(O)ccc32)C(=O)N[C@@H](CC(C)C)C(=O)N[C@@H](CC(=O)O)C(=O)N1)C(=O)N[C@@H](C)C(N)=O", "assay_target": "14-3-3ζ full length His-tag (Homo sapiens, UniProt P63104)", "measured_number": 6.45}
